biological target: human recombinant DGK ξ (Homo sapiens (Human), UniProt Q13574); experiment: Evaluation of DGK ξ inhibitory effect (ADP-Glo Kinase Assay); details: ADP-Glo luminescence
Sequence (Q13574 whole entry): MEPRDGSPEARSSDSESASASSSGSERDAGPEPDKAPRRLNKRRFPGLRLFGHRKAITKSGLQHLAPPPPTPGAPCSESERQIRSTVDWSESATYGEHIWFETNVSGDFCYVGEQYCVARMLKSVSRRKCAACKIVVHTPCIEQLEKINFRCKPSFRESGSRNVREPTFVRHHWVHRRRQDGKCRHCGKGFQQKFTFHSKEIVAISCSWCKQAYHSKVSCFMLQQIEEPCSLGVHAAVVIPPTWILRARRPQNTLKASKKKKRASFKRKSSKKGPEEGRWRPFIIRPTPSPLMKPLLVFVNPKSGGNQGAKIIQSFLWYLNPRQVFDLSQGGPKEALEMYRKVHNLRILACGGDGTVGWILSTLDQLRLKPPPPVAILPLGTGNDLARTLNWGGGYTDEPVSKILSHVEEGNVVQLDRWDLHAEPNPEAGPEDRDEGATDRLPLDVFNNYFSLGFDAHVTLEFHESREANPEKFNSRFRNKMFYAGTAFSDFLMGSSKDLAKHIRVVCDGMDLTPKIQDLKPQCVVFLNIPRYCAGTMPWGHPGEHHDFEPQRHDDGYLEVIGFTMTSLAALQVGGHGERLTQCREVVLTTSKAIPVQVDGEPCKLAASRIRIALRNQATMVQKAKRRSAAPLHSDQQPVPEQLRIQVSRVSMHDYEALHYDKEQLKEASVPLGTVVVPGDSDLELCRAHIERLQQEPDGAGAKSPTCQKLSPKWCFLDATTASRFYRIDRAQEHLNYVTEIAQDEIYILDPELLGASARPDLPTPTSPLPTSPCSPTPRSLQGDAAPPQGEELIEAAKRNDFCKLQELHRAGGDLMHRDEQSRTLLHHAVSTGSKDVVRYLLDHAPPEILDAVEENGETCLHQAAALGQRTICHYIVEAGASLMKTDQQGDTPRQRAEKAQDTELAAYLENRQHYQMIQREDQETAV
readout-type: IC50 (nM)

CNC[C@H]1CN(c2c(NC(=O)c3coc(-c4ccnnc4)n3)ccc(C3CCCC3)c2C(F)(F)F)CCN1C: 7.8
CN1CCN(c2c(NC(=O)c3ccn(-c4ccnnc4)n3)ccc(Oc3ccccc3Cl)c2C(F)(F)F)C[C@@H]1CN: 3.1
CNC[C@H]1CN(c2c(NC(=O)c3ccn(-c4ccnnc4)n3)ccc(Oc3ccccc3Cl)c2C(F)(F)F)CCN1C: 4.1
CN(C)CCOc1cccc(-c2c(NC(=O)c3coc(-c4ccnnc4)n3)ccc(OC3CC3)c2C(F)(F)F)c1: 37
CN(C)[C@@H]1CCN2CCN(c3c(NC(=O)c4ccn(-c5ccnnc5)n4)ccc(OC4CC4)c3C(F)(F)F)C[C@@H]12: 14
CNC[C@H]1CN(c2c(NC(=O)c3coc(-c4ccnnc4)n3)ccc(Oc3ccccc3F)c2C2CC2)CCN1C: 46
CN[C@@H]1CCN2CCN(c3c(NC(=O)c4coc(-c5ccnnc5)n4)ccc(Oc4ccccc4F)c3C(F)(F)F)C[C@@H]12: 3.5
N[C@@H]1CCN2CCN(c3c(NC(=O)c4coc(-c5ccnnc5)n4)ccc(Oc4ccccc4F)c3C(F)(F)F)C[C@@H]12: 45

[A] CNC[C@H]1CN(c2c(NC(=O)c3coc(-c4ccnnc4)n3)ccc(OC3CCC3)c2C(F)(F)F)CCN1C
[B] N[C@@H]1CCN2CCN(c3c(NC(=O)c4ccn(-c5ccnnc5)n4)ccc(Oc4ccccc4F)c3C(F)(F)F)C[C@@H]12
[C] CNC[C@H]1CN(c2c(NC(=O)c3ccn(CC(F)F)n3)ccc(Oc3ccccc3Cl)c2Cl)CCN1C
[D] CN1CCN(c2c(NC(=O)c3ccn(CC(F)F)n3)ccc(OC3CCC3)c2C(F)(F)F)C[C@@H]1CN
[E] CNC[C@H]1CN(c2c(NC(=O)c3ccn(-c4ccnnc4)n3)cc(F)c(Oc3ccccc3)c2F)CCN1C
Order by IC50, ascending. Put the labels in the requested order and list them out.
B, E, C, A, D
(B: 5.6 nM, E: 8.9 nM, C: 19 nM, A: 60 nM, D: 190 nM)

----------
target: human recombinant DGK ξ (Homo sapiens (Human), UniProt Q13574); experiment: Evaluation of DGK ξ inhibitory effect (ADP-Glo Kinase Assay); details: ADP-Glo luminescence
readout-type: IC50 (nM)

CNC[C@H]1CN(c2c(NC(=O)c3ccn(-c4ccnnc4)n3)ccc(Oc3ccc(F)cc3F)c2C(F)(F)F)CCN1C [Example 96]: 30

[I] NC[C@@H]1CCCN(c2c(NC(=O)c3ccn(-c4ccnnc4)n3)ccc(Oc3ccccc3F)c2C(F)(F)F)C1 [Example 34]
[II] NC[C@@H]1CCCN(c2c(NC(=O)c3ccn(-c4ccnnc4)n3)ccc(OC3CC3)c2-c2ccccc2)C1 [Example 63]
[III] CN[C@@H]1CCN2CCN(c3c(NC(=O)c4coc(-c5ccnnc5)n4)ccc(Oc4ccccc4)c3C(F)(F)F)C[C@@H]12 [Example 76]
# sort list by recorded IC50, greatest to least Put the labels in the requested order and list them out.
II, III, I

----------
target: human recombinant DGK ξ (Homo sapiens (Human), UniProt Q13574); assay: Evaluation of DGK ξ inhibitory effect (ADP-Glo Kinase Assay); settings: ADP-Glo luminescence
readout-type: IC50 (nM)

Completed entries (count: 4):
CNC[C@H]1CN(c2c(NC(=O)c3ccn(-c4ccnnc4)n3)ccc(Oc3ccccc3F)c2Cl)CCN1C [Example 125]: 1.8
CN1CCN(c2c(NC(=O)c3cccn(CC(F)F)c3=O)ccc(Oc3ccccc3F)c2C(F)(F)F)C[C@@H]1CN [Example 16]: 73
NC[C@@H]1CCCN(c2c(NC(=O)c3ccn(CC(F)F)n3)ccc(OC3CC3)c2C(F)(F)F)C1 [Example 5]: 330
NCCOc1cc(-c2c(NC(=O)c3coc(-c4ccnnc4)n3)ccc(OC3CC3)c2C(F)(F)F)ccn1 [Example 68]: 24

[P] Cc1cc(C(=O)Nc2ccc(Oc3ccccc3F)c(C(F)(F)F)c2N2CCC[C@@H](CN)C2)nn1-c1ccnnc1 [Example 37]
[Q] CNC[C@H]1CN(c2c(NC(=O)c3ccn(-c4ccnnc4)n3)ccc(C3CCCC3)c2C(F)(F)F)CCN1C [Example 48]
[R] CN1CCN(c2c(NC(=O)c3coc(-c4ccnnc4)n3)ccc(Oc3ccccc3F)c2C(F)(F)F)C[C@H]1CN [Example 55]
Order by IC50, ascending. Put the labels in the requested order and list them out.
Q, R, P
(Q: 5.8 nM, R: 12 nM, P: 23 nM)

----------
biological target: human recombinant DGK ξ (Homo sapiens (Human), UniProt Q13574); test: Evaluation of DGK ξ inhibitory effect (ADP-Glo Kinase Assay); conditions: ADP-Glo luminescence
pIC50: −log10 of the molar value.
readout-type: pIC50

Completed entries (count: 3):
N[C@@H]1CCN2CCN(c3c(NC(=O)c4ccn(-c5ccnnc5)n4)ccc(OC4CC4)c3C(F)(F)F)C[C@@H]12: 7.51
Cc1cc(C(=O)Nc2ccc(Oc3ccccc3)c(C(F)(F)F)c2N2CCC[C@@H](CN)C2)nn1-c1ccnnc1: 7.35
O=C(Nc1ccc(Oc2ccccc2F)c(C(F)(F)F)c1N1CCC[C@@H](CNC2CC2)C1)c1ccn(CC(F)F)n1: 7.03

[1] NC[C@@H]1CCCN(c2c(NC(=O)c3ccn(CC(F)(F)F)n3)ccc(Oc3ccccc3)c2C(F)(F)F)C1
[2] NCCCn1cc(-c2c(NC(=O)c3coc(-c4ccnnc4)n3)ccc(OC3CCC3)c2C(F)(F)F)cn1
Kindly identify the item with the lower pIC50 figure among these two: 1 and 2 Field: selected label. Fill in the label of the entry you choose.
1
(1: 6.96, 2: 7.37)

----------
molecular target: human recombinant DGK ξ (Homo sapiens (Human)); test: Evaluation of DGK ξ inhibitory effect (ADP-Glo Kinase Assay); conditions: ADP-Glo luminescence
readout-type: IC50 (nM)

Completed entries (count: 4):
CN1CCN(c2c(NC(=O)c3ccn(CC(F)F)n3)ccc(Oc3ccccc3Cl)c2C(F)(F)F)C[C@@H]1CN: 18
NC[C@@H]1CCCN(c2c(NC(=O)c3cccn(CC(F)F)c3=O)ccc(Oc3ccccc3F)c2C(F)(F)F)C1: 35
CNC[C@H]1CN(c2c(NC(=O)c3coc(-c4ccnnc4)n3)ccc(Oc3ccc(F)cc3)c2C(F)(F)F)CCN1C: 210
NC[C@]1(F)CCCN(c2c(NC(=O)c3ccn(-c4ccnnc4)n3)ccc(Oc3ccccc3F)c2C(F)(F)F)C1 [Example 45]: 12

[I] CN(C)C[C@H]1CN(c2c(NC(=O)c3coc(-c4ccnnc4)n3)ccc(Oc3ccccc3)c2C(F)(F)F)CCN1C
[II] CNC[C@H]1CN(c2c(NC(=O)c3cc(C)n(-c4ccnnc4)n3)ccc(Oc3ccccc3F)c2C(F)(F)F)CCN1C
[III] CNC[C@@H]1CN(c2c(NC(=O)c3ccn(-c4ccnnc4)n3)ccc(Oc3ccccc3F)c2C(F)(F)F)CCN1C [Example 47]
[IV] CNC[C@H]1CN(c2c(NC(=O)c3ccn(-c4ccnnc4)n3)ccc(Oc3ccccc3Cl)c2Cl)CCN1C
[V] NC[C@@H]1CCCN(c2c(NC(=O)c3ccn(C(F)F)n3)ccc(Oc3ccccc3)c2C(F)(F)F)C1
Order by IC50, ascending. Put the labels in the requested order and list them out.
IV, III, I, II, V
(IV: 1.4 nM, III: 6.7 nM, I: 44 nM, II: 92 nM, V: 150 nM)

[1] NCCOc1cc(-c2c(NC(=O)c3ccn(-c4ccnnc4)n3)ccc(OC3CCC3)c2C(F)(F)F)ccn1
[2] CN1CCN(c2c(NC(=O)c3cccn(CC(F)F)c3=O)ccc(Oc3ccccc3Cl)c2C(F)(F)F)C[C@@H]1CN
[3] CN1CCN(c2c(NC(=O)c3ccn(CC(F)F)n3)ccc(Oc3ccc(F)cc3)c2C(F)(F)F)C[C@@H]1CN
Order by IC50, ascending. Put the labels in the requested order and list them out.
1, 2, 3

[P] CNC[C@@H]1CN(c2c(NC(=O)c3ccn(-c4ccnnc4)n3)ccc(Oc3ccccc3Cl)c2C(F)(F)F)CCN1C
[Q] CN1CCN(c2c(NC(=O)c3ccn(CC(F)F)n3)ccc(Oc3ccccc3F)c2C(F)(F)F)C[C@H]1CN
Kindly identify the item with the lower IC50 figure among these two: P and Q Field: selected label. Fill in the label of the entry you choose.
P

----------
molecular target: human recombinant DGK ξ (Homo sapiens (Human)); test: Evaluation of DGK ξ inhibitory effect (ADP-Glo Kinase Assay); settings: ADP-Glo luminescence
readout-type: IC50 (µM)

Completed entries (count: 2):
CN(C)[C@@H]1CCN2CCN(c3c(NC(=O)c4coc(-c5ccnnc5)n4)ccc(OC4CC4)c3C(F)(F)F)C[C@@H]12: 0.041
CNC[C@H]1CN(c2c(NC(=O)c3ccn(-c4ccnnc4)n3)ccc(Oc3ccccc3F)c2Cl)CCN1C [Example 86]: 0.0029

[a] NC[C@@H]1CCCN(c2c(NC(=O)c3ccn(CC(F)F)n3)ccc(Oc3ccccc3F)c2F)C1
[b] CNC[C@H]1CN(c2c(NC(=O)c3ccn(-c4ccnnc4)n3)ccc(-c3ccccc3F)c2C(F)(F)F)CCN1C
Choose between a and b : whose measured IC50 value is numerically larger? Field: selected label. Fill in the label of the entry you choose.
a
(a: 0.057 µM, b: 0.011 µM)

[P] NC[C@]1(F)CCCN(c2c(NC(=O)c3ccn(-c4ccnnc4)n3)ccc(Oc3ccccc3F)c2C(F)(F)F)C1 [Example 126]
[Q] COCCNC[C@@H]1CCCN(c2c(NC(=O)c3ccn(-c4ccnnc4)n3)ccc(Oc3ccccc3F)c2C(F)(F)F)C1
Choose between P and Q : whose measured IC50 value is numerically larger? Field: selected label. Fill in the label of the entry you choose.
Q
(Q: 0.013 µM, P: 0.0062 µM)

[1] NC[C@@H]1CCCN(c2c(NC(=O)c3ccn(CC(F)F)n3)ccc(OC3CCCC3)c2C(F)(F)F)C1
[2] CN1CCN(c2c(NC(=O)c3ccn(-c4ccnnc4)n3)ccc(Oc3ccccc3F)c2C(F)(F)F)C[C@@H]1CNC1CC1
Choose between 1 and 2 : whose measured IC50 value is numerically larger? Field: selected label. Fill in the label of the entry you choose.
1
(1: 0.17 µM, 2: 0.027 µM)
